Protocol: qHTS RealTime-Glo MT Cell Viability Assay in HEK293 cells - 32 hour (AID 1224868); further: nearly all actives have a fitted effect of over 50% in size
Measurement Context: RealTime-Glo luminescence; series mostly up to 76.8 µM
Inconclusive results are not listed. Active and inactive are the calls of the source. The call rests on the fitted dose curve; in most records, active means well fitted cell-killing curve with a large enough effect in the repeat runs; inconclusive means weak or mixed curves, or effect the other way; inactive means flat fitted curve, though single readings scatter.
Outcomes: 1.0 = active, 0.0 = inactive

INSERT INTO measurements (compound, group) VALUES
  ('CC/C=C\C#N', 0.0),
  ('COC(=O)c1ccc(C(=O)OC)c(C(=O)OC)c1', 0.0),
  ('Cc1cc(C)c(NC(=O)CN(CC(=O)O)CC(=O)O)c(C)c1Br', 0.0),
  ('CCOC(=O)Cn1c(=O)sc2cccc(Cl)c21', 0.0),
  ('CN(C)C(=O)Nc1ccccc1', 0.0),
  ('O=C(O)/C=C/c1ccc(/C=C/C(=O)O)cc1', 0.0),
  ('OCC(O)[C@@H](O)[C@H](O)[C@H](O)CO[C@H]1O[C@H](CO)[C@@H](O)[C@H](O)[C@H]1O (some centres undefined)', 0.0),
  ('C#CC(O)C(CC)CCCC (centres undefined)', 0.0),
  ('C=C(C)C(=O)NCCCN(C)C', 0.0),
  ('COC(=O)C1=C(C)NC(C)=C(C(=O)OCC(C)=O)C1c1ccccc1[N+](=O)[O-] (centres undefined)', 0.0),
  ('O=C(O)CCNC(=O)c1ccc(N=Nc2ccc(O)c(C(=O)O)c2)cc1', 0.0),
  ('COC(=O)CCCCCCCCC(=O)OC', 0.0),
  ('OCC(CO)(CO)COCC(CO)(CO)CO', 0.0),
  ('C#CC(C)(O)CC(C)C (centres undefined)', 0.0),
  ('COCc1ccc(COC)cc1', 0.0),
  ('CN(C)C(=O)C(CCN1CCC(O)(c2ccc(Cl)cc2)CC1)(c1ccccc1)c1ccccc1', 1.0),
  ('CC1=CC(C)C(C=O)C(C)C1 (centres undefined)', 0.0),
  ('CCC(=O)Nc1cccc(N)c1', 0.0),
  ('CCCCCCCCCCCCCCC', 0.0),
  ('CCCC(C)CO (centres undefined)', 0.0),
  ('C[C@H]1O[C@@H](n2cc(F)c(=O)[nH]c2=O)[C@H](O)[C@@H]1O', 0.0),
  ('Nc1ccn(C2CO[C@H](CO)O2)c(=O)n1 (some centres undefined)', 0.0),
  ('Nc1cc(N)cc(C(=O)O)c1', 0.0),
  ('CCCCCCOC(=O)c1ccccc1O', 0.0),
  ('CCC(=O)c1cccc(Cl)c1', 0.0),
  ('CNC(=O)c1c(I)c(NC(=O)CCCCC(=O)Nc2c(I)c(C(=O)O)c(I)c(C(=O)NC)c2I)c(I)c(C(=O)O)c1I', 0.0),
  ('CC(=O)N[C@@H](CCC(N)=O)C(=O)O', 0.0),
  ('COC(C(=O)O)c1ccccc1 (centres undefined)', 0.0),
  ('[O-][N+](=Nc1ccccc1)c1ccccc1', 0.0),
  ('NC(=O)CCCCC1CCSS1 (centres undefined)', 0.0),
  ('NC(=O)c1c(Cl)cccc1Cl', 0.0),
  ('CN1[C@@H]2CC[C@H]1CC(NC(=O)n1c(=O)[nH]c3ccccc31)C2 (some centres undefined)', 0.0),
  ('O=C(O)/C=C/c1ccc(Cn2ccnc2)cc1', 0.0),
  ('CCCCNc1ccccc1', 0.0),
  ('Cc1ccccc1Br', 0.0),
  ('C=CC(=O)N1CCOCC1', 0.0),
  ('C(=C(c1ccccc1)c1ccccc1)c1ccccc1', 0.0),
  ('C[N+](C)(C)CC[N+]1(C)Cc2c(Cl)c(Cl)c(Cl)c(Cl)c2C1', 0.0),
  ('Nc1ncnc2c1ncn2Cc1c(F)cccc1Cl', 0.0),
  ('CNc1ncnc2nc[nH]c12', 0.0),
  ('CN(C)CCn1nnnc1SCC1=C(C(=O)O)N2C(=O)[C@@H](NC(=O)Cc3csc(N)n3)[C@H]2SC1', 0.0),
  ('Cn1cnc2c(=O)[nH]c(N)nc21', 0.0),
  ('NS(=O)(=O)c1cc(C2(O)NC(=O)c3ccccc32)ccc1Cl (centres undefined)', 0.0),
  ('CCn1c(=O)c2c(nc(/C=C/c3ccc(OC)c(OC)c3)n2C)n(CC)c1=O', 1.0),
  ('Cc1ccc(Nc2ccc(O)c3c2C(=O)c2ccccc2C3=O)cc1', 0.0),
  ('CCCc1ccc(N)cc1', 0.0),
  ('C1=C\CC/C=C\CC/C=C\CC/1', 0.0),
  ('c1ccc(CCCc2ccccn2)cc1', 0.0),
  ('CCCCCCCCCCCCCCCCCCOCC(O)CO (centres undefined)', 0.0),
  ('COC(=O)[C@H]1[C@H]2C[C@@H]3c4[nH]c5cc(OC)ccc5c4CCN3C[C@H]2C[C@@H](OC(=O)COc2ccc(OC)cc2)[C@@H]1OC', 0.0),
  ('O=C(O)c1ccccc1S', 0.0),
  ('CCO[Si](CCCN=C=O)(OCC)OCC', 0.0),
  ('CC(=O)O[C@H](CC(=O)[O-])C[N+](C)(C)C', 0.0),
  ('CC(C)CCCC(C)CCCC(C)CCCCC(C)CCCC(C)CCCC(C)C (centres undefined)', 0.0);

Data provenance is PubChem BioAssay (Tox21).
